I'd appreciate it if you could supply inhibition at 1 µM values for the items below.
Tested on: Marburg virus (MARV)
assayProcedure: organism not typed
Assay type: cell-based
experimentalParameters: Vero, 72 h, read-out: Percent viral inhibition MARV
One number for each entry, in %.

Recorded inhibition at 1 µM, per entry:
What inhibition at 1 µM value was documented for this molecule, CC(=O)NCC1CCN(Cc2cc(Oc3ccc(N4CCN(CCS(C)(=O)=O)CC4)nc3)nc(-c3cc(Cl)cc(Cl)c3)c2)CC1 ?
44.5

Param item: CC(=O)NCC1CCN(Cc2cc(Oc3ccc(N4C[C@@H]5C[C@H]4CN5CCS(C)(=O)=O)nc3)nc(-c3cc(Cl)cc(Cl)c3)c2)CC1
74.8

Param item: CC(=O)NCC1CCN(Cc2cc(Oc3ccc(N4CCN([C@H]5C[C@@H](NS(C)(=O)=O)C5)CC4)nc3)nc(-c3cc(Cl)cc(Cl)c3)c2)CC1
50.3

Param item: CC(=O)NCC1CCN(Cc2cc(Oc3cnc(N4CCN(C(C)CCC(=O)O)CC4)nc3)nc(-c3cc(Cl)cc(Cl)c3)c2)CC1 (stereo not shown)
56.7

Param item: CNC(=O)NCC1CCN(Cc2cc(Oc3cnc(N4CCN(CCC(N)=O)CC4)nc3)nc(-c3cc(Cl)cc(Cl)c3)c2)CC1
56.8

State the recorded inhibition at 1 µM for every item in the following list.
1. CCN1C[C@@H]2C[C@H]1CN2c1ncc(Oc2cc(CN3CCC(CC(=O)O)CC3)cc(-c3cc(Cl)cc(Cl)c3)n2)cn1
2. O=C(O)CC1CCN(Cc2cc(Oc3cnc(N4CC5CNCC5C4)nc3)nc(-c3cc(Cl)cc(Cl)c3)c2)CC1 (stereo not shown)

1. 43.4
2. 44.9

State the recorded inhibition at 1 µM for every item in the following list.
1. CC(O)CCN1CCN(c2ncc(Oc3cc(CN4CCC(CC(=O)O)CC4)cc(-c4cc(Cl)cc(Cl)c4)n3)cn2)CC1 (stereo not shown)
2. CNC(=O)OCC1CCN(Cc2cc(Oc3cnc(N4CCN(C)CC4)nc3)nc(-c3cc(Cl)cc(Cl)c3)c2)CC1
3. CN1C[C@@H]2C[C@H]1CN2c1ncc(Oc2cc(CN3CCC(CC(=O)O)CC3)cc(-c3cc(Cl)cc(Cl)c3)n2)cn1
4. CC(=O)NCC1CCN(Cc2cc(Oc3ccc(N4CCN(CCC(=O)O)[C@@H](C)C4)nc3)nc(-c3cc(Cl)cc(Cl)c3)c2)CC1
5. CCNC(=O)CC1CCN(Cc2cc(Oc3ccc(N4CCN(CCCS(C)(=O)=O)CC4)nc3)nc(-c3cc(Cl)cc(Cl)c3)c2)CC1
6. O=C(O)CC1CCN(Cc2cc(Oc3cnc(N4CCNCC4)nc3)nc(-c3cc(Cl)cc(Cl)c3)c2)CC1
7. CNC(=O)NCC1CCN(Cc2cc(Oc3cnc(N4CCN(C5CC(C(=O)O)C5)CC4)nc3)nc(-c3cc(Cl)cc(Cl)c3)c2)CC1 (stereo not shown)

[37.7, 60.7, 66.6, 30.6, 52.5, 50.8, 63.2]

State the recorded inhibition at 1 µM for every item in the following list.
1. CC(=O)NCC1CCN(Cc2cc(Oc3cnc(N4CCN(CC(C)(C)O)CC4)nc3)nc(-c3cc(Cl)cc(Cl)c3)c2)CC1
2. CCN1C[C@@H]2C[C@H]1CN2c1ccc(Oc2cc(CN3CCC(CC(=O)O)CC3)cc(-c3cc(Cl)cc(Cl)c3)n2)nn1

1: 49.6; 2: 23.1

Measured values drawn from patent US20230011571A1 for this set.
